# Lookup of reported log10 IC50 keyed by entry
# testTarget: Nav 1.7 (Homo sapiens (Human), UniProt Q15858)
# Sequence (Q15858 whole entry): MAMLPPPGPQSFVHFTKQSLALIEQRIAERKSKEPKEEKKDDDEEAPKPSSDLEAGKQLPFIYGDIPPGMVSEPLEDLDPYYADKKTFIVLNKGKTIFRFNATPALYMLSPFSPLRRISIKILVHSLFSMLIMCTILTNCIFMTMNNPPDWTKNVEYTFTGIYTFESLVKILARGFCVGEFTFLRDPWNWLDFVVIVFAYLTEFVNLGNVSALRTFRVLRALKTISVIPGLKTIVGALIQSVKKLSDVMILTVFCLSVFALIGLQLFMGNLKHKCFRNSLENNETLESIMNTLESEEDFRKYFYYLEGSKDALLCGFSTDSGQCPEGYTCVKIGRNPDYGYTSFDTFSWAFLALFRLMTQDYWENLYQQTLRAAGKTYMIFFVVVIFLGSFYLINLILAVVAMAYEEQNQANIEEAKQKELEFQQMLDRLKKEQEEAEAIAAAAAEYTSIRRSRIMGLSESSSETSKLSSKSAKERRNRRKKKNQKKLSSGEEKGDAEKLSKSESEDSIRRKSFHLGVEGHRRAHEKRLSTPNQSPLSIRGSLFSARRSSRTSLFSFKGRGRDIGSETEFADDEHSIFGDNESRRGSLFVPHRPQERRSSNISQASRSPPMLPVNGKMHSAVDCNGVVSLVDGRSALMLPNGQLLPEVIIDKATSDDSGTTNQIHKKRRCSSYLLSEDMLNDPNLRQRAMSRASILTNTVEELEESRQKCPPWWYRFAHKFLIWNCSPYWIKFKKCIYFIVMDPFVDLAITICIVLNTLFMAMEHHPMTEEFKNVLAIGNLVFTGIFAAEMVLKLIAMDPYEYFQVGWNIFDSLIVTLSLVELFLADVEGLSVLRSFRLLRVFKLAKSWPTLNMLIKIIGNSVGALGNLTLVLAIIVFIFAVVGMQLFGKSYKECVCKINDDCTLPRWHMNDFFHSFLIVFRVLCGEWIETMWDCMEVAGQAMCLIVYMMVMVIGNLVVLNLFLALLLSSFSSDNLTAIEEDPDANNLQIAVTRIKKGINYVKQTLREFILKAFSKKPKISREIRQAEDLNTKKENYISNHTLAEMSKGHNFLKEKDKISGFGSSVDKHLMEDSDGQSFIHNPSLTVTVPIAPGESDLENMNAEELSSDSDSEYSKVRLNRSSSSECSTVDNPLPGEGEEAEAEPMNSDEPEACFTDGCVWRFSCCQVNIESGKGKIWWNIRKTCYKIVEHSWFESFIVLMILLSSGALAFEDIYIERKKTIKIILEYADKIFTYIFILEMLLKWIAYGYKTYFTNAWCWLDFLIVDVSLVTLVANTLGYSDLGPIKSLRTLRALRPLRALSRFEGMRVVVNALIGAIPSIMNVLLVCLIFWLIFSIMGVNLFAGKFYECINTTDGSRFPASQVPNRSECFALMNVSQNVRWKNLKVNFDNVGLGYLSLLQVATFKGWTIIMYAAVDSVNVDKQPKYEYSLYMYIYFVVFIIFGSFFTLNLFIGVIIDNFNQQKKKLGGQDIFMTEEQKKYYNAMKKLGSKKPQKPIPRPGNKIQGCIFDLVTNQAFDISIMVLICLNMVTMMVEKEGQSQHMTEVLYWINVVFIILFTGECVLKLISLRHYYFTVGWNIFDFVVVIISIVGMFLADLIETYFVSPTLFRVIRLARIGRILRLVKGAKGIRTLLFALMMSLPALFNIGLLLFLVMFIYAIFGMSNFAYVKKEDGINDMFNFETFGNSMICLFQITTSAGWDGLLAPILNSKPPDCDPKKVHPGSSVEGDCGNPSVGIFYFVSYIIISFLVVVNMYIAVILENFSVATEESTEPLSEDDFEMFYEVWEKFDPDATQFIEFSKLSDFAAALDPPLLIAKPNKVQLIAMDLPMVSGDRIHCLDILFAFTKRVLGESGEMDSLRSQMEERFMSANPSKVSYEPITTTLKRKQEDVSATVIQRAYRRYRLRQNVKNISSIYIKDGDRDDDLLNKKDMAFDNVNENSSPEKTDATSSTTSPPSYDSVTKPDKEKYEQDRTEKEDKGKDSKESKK
# procedureSummary: Nav 1.7 in vitro PX assay (PatchXpress whole cell voltage clamp)
# Type: cell-based
# particulars: 293 cells, human Nav1.7, partially inactivated state; read-out: Nav1.7 PX IC50 IP
Where a name gives a salt, the structure may show the parent alone.
quantityKind: log10 IC50 (log10 of the value in nM)

compound: COc1cc(Cl)c(Cl)cc1-c1nccc2cc(S(=O)(=O)Nc3ccncn3)ccc12 [Example 161]
log10 IC50: 2.59
//
compound: O=S(=O)(Nc1nccs1)c1ccc2c(-c3ccc(F)cc3C3=CCOC3)nccc2c1 [Example 127, TRIFLUOROACETATE]
log10 IC50: 3.35
//
compound: COc1ccc(-c2cccc(F)c2)cc1-c1nccc2cc(S(=O)(=O)Nc3ccncn3)ccc12 [Example 348]
log10 IC50: 2.01
//
compound: COc1cc(C(F)F)c(F)cc1-c1ncnc2cc(S(=O)(=O)Nc3cscn3)ccc12 [Example 513]
log10 IC50: 2.89
//
compound: NC(=O)COc1cc(F)ccc1-c1nccc2cc(S(=O)(=O)Nc3nccs3)ccc12 [Example 417]
log10 IC50: 3.09
//
compound: O=S(=O)(Nc1nccs1)c1ccc2c(-c3ccn(-c4ccccc4)c3)nccc2c1 [Example 207, 2,2,2-TRIFLUOROACETATE]
log10 IC50: 3.86
//
compound: COc1cc(-c2ccc(F)c(F)c2)ccc1-c1nccc2cc(S(=O)(=O)Nc3ccncn3)ccc12 [Example 448]
log10 IC50: 1.58
//
compound: CNc1cc2cc(S(=O)(=O)Nc3nccs3)ccc2c(-c2ccc(C(F)(F)F)cc2OC)n1 [Example 222]
log10 IC50: 2.96
//
compound: Cn1cncc1-c1cc(C(F)(F)F)ccc1-c1cccc2cc(S(=O)(=O)Nc3ncc(F)s3)ccc12 [Example 110]
log10 IC50: 2.15
//
compound: COc1cc(C(F)F)c(F)cc1-c1ncnc2cc(S(=O)(=O)Nc3nccs3)ccc12 [Example 512]
log10 IC50: 2.37
//
compound: COc1cc(C(F)(F)F)ccc1-c1nc(Cl)cc2cc(S(=O)(=O)Nc3nccs3)ccc12 [Example 219]
log10 IC50: 2.90
//
compound: COc1cc(-c2ccc(C#N)cc2)ccc1-c1nccc2cc(S(=O)(=O)Nc3ccncn3)ccc12 [Example 455]
log10 IC50: 2.96
//
compound: O=S(=O)(Nc1ncc(F)s1)c1ccc2c(-c3ccc(C(F)(F)F)cc3C3CCNCC3)cccc2c1 [Example 113]
log10 IC50: 2.07
//
compound: COc1ccc(C)cc1-c1nccc2cc(S(=O)(=O)Nc3ccncn3)ccc12 [Example 149]
log10 IC50: 3.38
//
compound: COc1cc(C(F)(F)F)ccc1-c1c[nH]c(=O)c2cc(S(=O)(=O)Nc3nccs3)ccc12 [Example 544]
log10 IC50: 2.85
//
compound: COc1nc(-c2cccc(F)c2)c(Cl)cc1-c1nccc2cc(S(=O)(=O)Nc3nncs3)ccc12 [Example 498]
log10 IC50: 2.88
//
compound: COc1cc(C(F)(F)F)ccc1-c1nccc2cc(S(=O)(=O)Nc3ncns3)ccc12 [Example 195]
log10 IC50: 2.13
//
compound: COc1cc(C(F)(F)F)ccc1-c1nccc2cc(S(=O)(=O)Nc3ccnc(C)n3)ccc12 [Example 182]
log10 IC50: 4.07
//
compound: COc1ccccc1-c1nccc2cc(S(=O)(=O)Nc3nccs3)ccc12 [Example 406]
log10 IC50: 2.66
//
compound: COc1cc(F)c(F)cc1-c1nccc2cc(S(=O)(=O)Nc3ccncn3)ccc12 [Example 142]
log10 IC50: 3.25
//
compound: COc1ccccc1-c1nncc2cc(S(=O)(=O)Nc3nccs3)ccc12 [Example 252]
log10 IC50: 3.28
//
compound: COc1cc(F)cc(-c2ccc(-c3nccc4cc(S(=O)(=O)Nc5ccncn5)ccc34)c(OC)c2)c1 [Example 485]
log10 IC50: 2.11
//
compound: COc1cc(-c2ccc(F)c(F)c2)c(F)cc1-c1nccc2cc(S(=O)(=O)Nc3nncs3)ccc12 [Example 365]
log10 IC50: 1.61
//
compound: COc1cc(-c2ccccc2C)ccc1-c1nccc2cc(S(=O)(=O)Nc3ccncn3)ccc12 [Example 441]
log10 IC50: 1.89
//
compound: COc1cc(C(F)(F)F)ccc1-c1ncc(OC)c2cc(S(=O)(=O)Nc3nccs3)ccc12 [Example 231, 2,2,2-TRIFLUOROACETATE]
log10 IC50: 2.43
//
compound: COc1cc(C2CC2)ccc1-c1cccc2cc(S(=O)(=O)Nc3ccncn3)ccc12 [Example 125]
log10 IC50: 2.80
//
compound: COc1cc(C(F)(F)F)ccc1-c1nccc2cc(S(=O)(=O)Nc3ncc(Cl)s3)ccc12 [Example 420]
log10 IC50: 2.56
//
compound: COc1cc(-c2ccc(F)nc2)ccc1-c1nccc2cc(S(=O)(=O)Nc3ccncn3)ccc12 [Example 352]
log10 IC50: 3.27
//
compound: COc1cccc(-c2ccc(-c3nccc4cc(S(=O)(=O)Nc5ccncn5)ccc34)c(OC)c2)c1 [Example 467]
log10 IC50: 2.31
//
compound: COc1cc(C(F)(F)F)ccc1-c1cnnc2cc(S(=O)(=O)Nc3nccs3)ccc12 [Example 259]
log10 IC50: 2.51

---

# testTarget: Nav 1.7 (Homo sapiens (Human), UniProt Q15858)
# procedureSummary: Nav 1.7 IWQ in vitro assay (IonWorks Quattro population patch-clamp)
# Format: cell-based
# particulars: 293 cells stably transfected with Nav 1.7; second part of table; read-out: Nav1.7 IWQ IC50 IP
Counter-ions that a name gives are not always drawn.
# Lookup of reported log10 IC50 keyed by entry
quantityKind: log10 IC50 (log10 of the value in nM)

compound: O=S(=O)(Nc1nccs1)c1ccc2c(-c3ccc(C(F)(F)F)cc3F)nccc2c1 [Example 228]
log10 IC50: 2.04
//
compound: N#CC1(COc2nccc3cc(S(=O)(=O)Nc4ccncn4)ccc23)CC1 [Example 135]
log10 IC50: 3.52
//
compound: O=S(=O)(Nc1ncns1)c1ccc2c(C3CCCN3)cccc2c1 (centres unmarked) [Example 95, 2,2,2-TRIFLUOROACETATE]
log10 IC50: 2.73
//
compound: COc1cc(C(F)(F)F)ccc1-c1cncc2cc(S(=O)(=O)Nc3ccncn3)ccc12 [Example 285, HYDROCHLORIDE]
log10 IC50: 1.60
//
compound: COc1cc(C(F)(F)F)ccc1-c1ncnc2cc(S(=O)(=O)Nc3ncco3)ccc12 [Example 264]
log10 IC50: 2.23
//
compound: COc1cc(C(F)(F)F)ccc1-c1ncc(F)c2cc(S(=O)(=O)Nc3nccs3)ccc12 [Example 212]
log10 IC50: 1.48

---

# Lookup of reported IC50 keyed by entry
# testTarget: UniProt:Q15858
# procedureSummary: Nav 1.7 in vitro PX assay (PatchXpress whole cell voltage clamp)
# Type: cell-based
# particulars: 293 cells, human Nav1.7, partially inactivated state; read-out: Nav1.7 PX IC50 IP
# Experimental: Nav 1.7 In Vitro PX Assay 293 cells stably transfected with human Nav1.7 were recorded in whole cell voltage clamp mode with the PatchXpress automated electrophysiology system (Molecular Devices, LLC, Sunnyvale, Calif.). Compound effects were measured on a partially inactivated state of the sodium channel. Cells were clamped to a holding potential yielding 20 to 50% inactivation. […] Peak sodium current was measured at the end of the compound addition period to determine percent inhibition. […]
quantityKind: IC50 (nM)

compound: O=S(=O)(Nc1ccncn1)c1ccc2c(-c3ccccc3OCC(F)(F)F)nccc2c1 [Example 174]
quantityKind: IC50
observed: 29800
//
compound: COc1cc(-c2cccc(F)c2)ccc1-c1nccc2cc(S(=O)(=O)Nc3nncs3)ccc12 [Example 354, 2,2,2-TRIFLUOROACETATE]
quantityKind: IC50
observed: 110
//
compound: COc1ncc(C(F)(F)F)cc1-c1nccc2cc(S(=O)(=O)Nc3nccs3)ccc12 [Example 409]
quantityKind: IC50
observed: 690
//
compound: COc1cc(C(F)(F)F)ccc1-c1ncc(F)c2cc(S(=O)(=O)Nc3ccncn3)ccc12 [Example 216]
quantityKind: IC50
observed: 559
//
compound: COc1cc(C#N)ccc1-c1cccc2cc(S(=O)(=O)Nc3ncns3)ccc12 [Example 330]
quantityKind: IC50
observed: 118
//
compound: O=S(=O)(Nc1nccs1)c1ccc2c(-c3ccc(F)cc3-c3ccncc3)nccc2c1 [Example 126]
quantityKind: IC50
observed: 2660
//
compound: COc1cc(-c2ccc(F)c(C#N)c2)ccc1-c1nccc2cc(S(=O)(=O)Nc3ccncn3)ccc12 [Example 486]
quantityKind: IC50
observed: 338
//
compound: COc1cc(C(F)(F)F)ccc1-c1nccc2cc(S(=O)(=O)Nc3nc(Cl)cs3)ccc12 [Example 419]
quantityKind: IC50
observed: 272
//
compound: COc1cc(Oc2ccccc2F)ccc1-c1nccc2cc(S(=O)(=O)Nc3ccncn3)ccc12 [Example 465]
quantityKind: IC50
observed: 567
//
compound: COc1cc(-c2cccc(F)c2)c(Cl)cc1-c1ncnc2cc(S(=O)(=O)Nc3ccncn3)ccc12 [Example 523]
quantityKind: IC50
observed: 65
//
compound: Cn1cccc1-c1nccc2cc(S(=O)(=O)Nc3nccs3)ccc12 [Example 244]
quantityKind: IC50
observed: 11300
//
compound: COc1cc(F)ccc1-c1ncc(F)c2cc(S(=O)(=O)Nc3nccs3)ccc12 [Example 213]
quantityKind: IC50
observed: 360
//
compound: COc1ccc(Cl)cc1-c1nccc2cc(S(=O)(=O)Nc3ncns3)ccc12 [Example 346]
quantityKind: IC50
observed: 132
//
compound: O=S(=O)(Nc1ncns1)c1ccc2c(N3CCC[C@H]3c3ccncc3)cccc2c1 (single isomer, unassigned) [Example 89]
quantityKind: IC50
observed: 2330
//
compound: Cn1c(-c2cccc3cc(S(=O)(=O)Nc4ccncn4)ccc23)cc2cc(F)ccc21 [Example 106]
quantityKind: IC50
observed: 3840
//
compound: COc1nc(-c2ccc(C(F)(F)F)cc2OC)c2ccc(S(=O)(=O)Nc3nccs3)cc2n1 [Example 511]
quantityKind: IC50
observed: 257
//
compound: COc1cc(C(F)(F)F)ccc1-c1ncc(C#N)c2cc(S(=O)(=O)Nc3ccncn3)ccc12 [Example 242]
quantityKind: IC50
observed: 3890
//
compound: COc1ccc(C#N)cc1-c1nccc2cc(S(=O)(=O)Nc3ccncn3)ccc12 [Example 150]
quantityKind: IC50
observed: 7190
//
compound: COc1ccccc1-c1ccnc2cc(S(=O)(=O)Nc3ncns3)ccc12 [Example 320, 2,2,2-TRIFLUOROACETATE]
quantityKind: IC50
observed: 155
//
compound: COc1cc(-c2cccc(F)c2)c(F)cc1-c1nccc2cc(S(=O)(=O)Nc3nncs3)ccc12 [Example 366]
quantityKind: IC50
observed: 48
//
compound: COc1cc(C(F)(F)F)ccc1-c1ncc(F)c2cc(S(=O)(=O)Nc3nccs3)ccc12 [Example 212]
quantityKind: IC50
observed: 269
//
compound: COc1ccccc1-c1ccnc2cc(S(=O)(=O)Nc3ccncn3)ccc12 [Example 281]
quantityKind: IC50
observed: 1930
//
compound: C[C@@H](COc1ccc(Cl)cc1)Oc1nccc2cc(S(=O)(=O)Nc3ccncn3)ccc12 [Example 131]
quantityKind: IC50
observed: 4190
//
compound: COc1cc(Cl)ccc1-c1nccc2cc(S(=O)(=O)Nc3nccs3)ccc12 [Example 201]
quantityKind: IC50
observed: 315
//
compound: COc1cc(-c2cccc(F)c2)c(C#N)cc1-c1nccc2cc(S(=O)(=O)Nc3nncs3)ccc12 [Example 341]
quantityKind: IC50
observed: 69
//
compound: COc1cc(C(F)(F)F)ccc1-c1ccnc2cc(S(=O)(=O)Nc3nccs3)c(C)cc12 [Example 326]
quantityKind: IC50
observed: 660
//
compound: COc1cc(C(F)(F)F)ccc1-c1ncnc2cc(S(=O)(=O)Nc3ncco3)ccc12 [Example 264]
quantityKind: IC50
observed: 1870
//
compound: COc1cc(C(F)(F)F)ccc1-c1nccc2cc(S(=O)(=O)Nc3cccnn3)ccc12 [Example 185]
quantityKind: IC50
observed: 2700
//
compound: O=S(=O)(Nc1nccs1)c1ccc2c([C@@H]3CCCN3C3CCOCC3)cccc2c1 [Example 103]
quantityKind: IC50
observed: 14500
//
compound: COc1cc(C#N)ccc1-c1nccc2cc(S(=O)(=O)Nc3ccncn3)ccc12 [Example 206]
quantityKind: IC50
observed: 4420
//
compound: COc1cc(C(F)(F)F)ccc1-c1nccc2cc(S(=O)(=O)Nc3ncc(F)s3)ccc12 [Example 198, 2,2,2-TRIFLUOROACETATE]
quantityKind: IC50
observed: 422
//
compound: O=S(=O)(Nc1nccs1)c1ccc2c(-c3ccc(F)cc3O)nccc2c1 [Example 189]
quantityKind: IC50
observed: 5960
